Taken from ChEMBL document CHEMBL2163286.

- PROCEDURE_DETAILS: Half life in rat at 10 mg/kg, po
- Assay type: ADME, organism-based
- Parameters: dose 10 mg/kg, route oral
- RECORDED_CONDITIONS: in vivo
RECORDED_METRIC: half-life (h)
Numeric only. Scale: h

Enquiry: Return reported half-life; argument: CNCCN1CCCc2cc(NC(=N)c3cccs3)ccc21
Return: 8.1

* * *

- PROCEDURE_DETAILS: Tmax in rat at 3 mg/kg, iv or 10 mg/kg, po
- Format: ADME, organism-based
- RECORDED_CONDITIONS: in vivo
RECORDED_METRIC: Tmax (h)
# number only, unit h dropped from output

Enquiry: What value of Tmax has been recorded for this entry: CNCCN1CCCc2cc(NC(=N)c3cccs3)ccc21
Return: 2

* * *

- ASSAYED_TARGET: Voltage-gated inwardly rectifying potassium channel KCNH2 (Homo sapiens, UniProt Q12809)
- Sequence (Q12809 whole entry): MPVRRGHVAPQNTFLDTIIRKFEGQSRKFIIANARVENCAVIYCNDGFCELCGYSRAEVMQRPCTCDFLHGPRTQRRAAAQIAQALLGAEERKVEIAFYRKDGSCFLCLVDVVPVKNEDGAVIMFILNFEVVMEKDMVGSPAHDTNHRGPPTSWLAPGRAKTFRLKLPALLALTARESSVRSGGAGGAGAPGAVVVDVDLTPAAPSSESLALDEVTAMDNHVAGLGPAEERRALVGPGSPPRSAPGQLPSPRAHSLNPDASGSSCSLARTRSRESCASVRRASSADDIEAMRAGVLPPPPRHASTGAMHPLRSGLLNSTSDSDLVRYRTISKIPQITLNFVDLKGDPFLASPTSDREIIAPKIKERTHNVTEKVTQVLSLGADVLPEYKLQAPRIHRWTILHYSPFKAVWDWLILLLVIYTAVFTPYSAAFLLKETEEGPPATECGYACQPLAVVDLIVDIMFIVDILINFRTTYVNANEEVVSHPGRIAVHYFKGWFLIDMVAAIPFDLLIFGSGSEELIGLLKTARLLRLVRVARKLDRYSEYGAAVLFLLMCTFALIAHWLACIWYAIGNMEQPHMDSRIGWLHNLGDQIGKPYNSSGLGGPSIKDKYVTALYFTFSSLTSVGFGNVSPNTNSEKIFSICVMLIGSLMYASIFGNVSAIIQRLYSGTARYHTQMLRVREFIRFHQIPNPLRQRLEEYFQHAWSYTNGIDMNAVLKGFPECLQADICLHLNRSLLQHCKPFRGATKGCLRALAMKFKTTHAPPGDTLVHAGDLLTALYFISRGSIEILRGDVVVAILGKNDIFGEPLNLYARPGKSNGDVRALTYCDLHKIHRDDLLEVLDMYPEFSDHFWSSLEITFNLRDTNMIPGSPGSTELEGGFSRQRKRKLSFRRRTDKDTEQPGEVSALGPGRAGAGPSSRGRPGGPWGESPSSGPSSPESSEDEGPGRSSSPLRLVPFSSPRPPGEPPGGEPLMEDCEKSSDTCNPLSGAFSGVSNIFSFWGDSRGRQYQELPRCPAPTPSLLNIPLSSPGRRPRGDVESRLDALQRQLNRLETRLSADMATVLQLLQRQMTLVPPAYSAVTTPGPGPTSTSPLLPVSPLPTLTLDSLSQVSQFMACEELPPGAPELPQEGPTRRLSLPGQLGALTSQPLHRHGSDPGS
- PROCEDURE_DETAILS: Inhibition of human ERG expressed in HEK293 cells at -80 mV holding potential assessed as reduction in tail current amplitude by conventional patch clamp assay
pIC50: −log10 of the molar value.
RECORDED_METRIC: pIC50

See these solved cases before continuing.
CN1CCC[C@H]1CCN1CCCc2cc(NC(=N)c3cccs3)ccc21: 5.33
N=C(Nc1ccc2c(c1)CCCN2C1CCNC1)c1cccs1 (racemic): < 4.52
N=C(Nc1ccc2c(c1)CCCN2CCNCCO)c1cccs1: < 4.52
CC(C)NCCN1CCCc2cc(NC(=N)c3cccs3)ccc21: 4.56
CCN(C)CCN1CCCc2cc(NC(=N)c3cccs3)ccc21: 5.35

Enquiry: pIC50 of CCNCCN1CCCc2cc(NC(=N)c3cccs3)ccc21 on Voltage-gated inwardly rectifying potassium channel KCNH2 (Homo sapiens, UniProt Q12809)?
Return: < 4.52

Enquiry: Which measured pIC50 belongs to N=C(Nc1ccc2c(c1)CCCN2CCCNCCO)c1cccs1 , tested on Voltage-gated inwardly rectifying potassium channel KCNH2 (Homo sapiens, UniProt Q12809)?
Return: < 4.52

Enquiry: Recorded pIC50 for CNCCCN1CCCc2cc(NC(=N)c3cccs3)ccc21 with Voltage-gated inwardly rectifying potassium channel KCNH2 (Homo sapiens, UniProt Q12809), please?
Return: < 4.52

* * *

- PROCEDURE_DETAILS: Plasma protein binding in human plasma
- Type: ADME, cell-free
- RECORDED_CONDITIONS: read-out: PPB (converted)
RECORDED_METRIC: fraction unbound
Provide a numeric answer; units are not to be included.

Enquiry: So what's the measured fraction unbound for this one? CNCCN1CCCc2cc(NC(=N)c3cccs3)ccc21
Return: 0.6

* * *

- PROCEDURE_DETAILS: Plasma clearance in rat at 3 mg/kg, iv or 10 mg/kg, po
- Format: ADME, organism-based
RECORDED_METRIC: clearance (mL/min/kg)
The figure you give is taken to be in mL/min/kg; do not add the unit.

Enquiry: Any idea what clearance was measured for CNCCN1CCCc2cc(NC(=N)c3cccs3)ccc21 ?
Return: 87.7

* * *

- ASSAYED_TARGET: Muscarinic acetylcholine receptor M3 (Homo sapiens)
- Sequence (P20309 whole entry): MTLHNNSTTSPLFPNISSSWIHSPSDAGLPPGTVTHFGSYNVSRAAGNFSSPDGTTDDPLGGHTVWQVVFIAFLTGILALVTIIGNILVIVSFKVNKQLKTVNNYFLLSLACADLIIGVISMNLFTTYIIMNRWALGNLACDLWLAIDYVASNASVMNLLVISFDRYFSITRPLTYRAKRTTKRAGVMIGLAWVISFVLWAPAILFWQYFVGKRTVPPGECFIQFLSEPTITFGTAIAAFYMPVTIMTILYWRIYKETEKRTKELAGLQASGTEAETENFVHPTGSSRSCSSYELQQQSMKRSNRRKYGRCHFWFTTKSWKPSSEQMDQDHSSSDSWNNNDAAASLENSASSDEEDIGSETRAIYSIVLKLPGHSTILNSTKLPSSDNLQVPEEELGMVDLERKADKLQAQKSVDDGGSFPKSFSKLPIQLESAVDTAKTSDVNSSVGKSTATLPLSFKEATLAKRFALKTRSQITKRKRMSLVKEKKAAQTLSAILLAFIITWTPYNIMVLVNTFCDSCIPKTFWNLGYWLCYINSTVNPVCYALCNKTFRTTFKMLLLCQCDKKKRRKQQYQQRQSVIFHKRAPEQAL
- PROCEDURE_DETAILS: Inhibition of human muscarinic M3 receptor by cell based functional assay
RECORDED_METRIC: EC50

Enquiry: Which value of EC50 has been reported for CNCCN1CCCc2cc(NC(=N)c3cccs3)ccc21 in the records?
Return: > 40 µM
